Study System: T1, OX40 on OX40 over-expressed cells (UniProt P43489 29-277)
T1 construct: whole, on cells; human implied; also called OX40 expressed on the surface of OX40 expressing cell
T1 sequence (looked up): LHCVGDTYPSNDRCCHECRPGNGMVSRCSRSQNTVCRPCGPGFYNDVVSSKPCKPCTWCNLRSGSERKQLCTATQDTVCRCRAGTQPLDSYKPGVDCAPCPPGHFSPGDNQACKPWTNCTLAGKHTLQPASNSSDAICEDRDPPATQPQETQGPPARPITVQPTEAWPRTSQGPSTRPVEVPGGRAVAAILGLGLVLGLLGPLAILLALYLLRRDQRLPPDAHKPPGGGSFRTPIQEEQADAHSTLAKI
Method Description: flow cytometry, supernatant on OX40 over-expressed cells
Lab note: class by Y586 channel PE fluorescence value, see lo (below 200000), mid (200000 to below 400000), hi (400000 or more)

Asked: Which of the defined bands does the recorded Y586 channel PE fluorescence value of 48D10-5 (antibody, V domains shown, hybridoma antibody, tested as culture supernatant) VH: QVQLVQSGAEVKKPGASMKVSCKASGYTFANFGINWVRQAPGQGLEWMGWISAYNGYTNYAQQFQGRITMTTDTSTSTAYMELRSLRSDDTAIYYCVIWFGELLSFDYWGQGTLVTVSS VL: DIQMTQFPSSLSASVGDRVTITCRASQDISNYLAWFQQKPGKAPKSLIYAASSLQSGVPSKFSGNGFGTDFTFPLSRMQPEDFASSYCQQYNNYTFTFGRGTKVEIKR sit within?
Given back: mid

Asked: Which of the defined bands does the recorded Y586 channel PE fluorescence value of 38D9-12 (antibody, V domains shown, hybridoma antibody, tested as culture supernatant) VH: QVQLQESGPGLVKPSGTLSLTCAVSGDSISSTNWWSWVRQPPGKGLEWIGEINHNGSTYYNPSLKSRVTISVDKSKNQFSLKLRSVTAADTAVYYCAREDYYYMDVWGKGTTVTVSS VL: DIQMTQSPSSLSASVGDRVTITCRTSQGIWNDLGWYQQKPGKAPKRLIYAASSLQSGVPSRFSGSESGTEFTLTISSLQPEDFATYYCLQYNNYPLTFGGGTKVEIKR sit within?
Given back: mid

Asked: Which of the defined bands does the recorded Y586 channel PE fluorescence value of 4D9-12 (antibody, V domains shown, hybridoma antibody, tested as culture supernatant) VH: QVQLQESGPGLVKPSGTLSLTCAVSGGSISSSNWWSWVRQPPGKGLEWIGEIYHSGNTIYNPSLKSRVTISLDKSKNQFSLKLSSVTAADTAVYYCASSGSLYMDVWGKGTTVTVSS VL: DIQMTQSPSSLLSSVGDRVTISCRASHGSSTYLNWYQQKPGKAPRLLIYGASSLQSGVPSRFSGSGFGTDFILTISSMQPEDFATYYCQQSYSIPITFGQGTRLEIKR sit within?
Given back: lo

Asked: Which of the defined bands does the recorded Y586 channel PE fluorescence value of 20D2-12 (antibody, V domains shown, hybridoma antibody, tested as culture supernatant) VH: QVQLVESGGGLVKPGGSLRLSCAASGFTFSDYYMSWIRQAPGRGLEWISYISGSDSTIYYEDSVMGRFTISRDNAKNSLYLQMNSLRAEDTAVYYCARDRDVYGYSGYGYFDYWGQGTLVTVSS VL: EIVLTQSPGTLSLSPGERATLSCRASQSVSSRYLAWYQQKPGQAPRLLIYGASNRATGMPDRFSGSGSGTDFTLTISRLEPEDFAVYYCQQYGSSPITFGQGTRLEIKR sit within?
Given back: hi

Asked: Which of the defined bands does the recorded Y586 channel PE fluorescence value of 1F10-12-3 (antibody, V domains shown, hybridoma antibody, tested as culture supernatant) VH: QVQLQESGPGLVKPSGTLSLTCAVSGGSISNSNWWNWVRQPPGRGLEWIGEIYHSGSTNYNPSLKSRVTISVDKSKNQFSLKLTSVTAADTAVYYCARYSTPFFDYWGQGNLVTVSS VL: DIQMTQSPSSLSASVGDRVTITCRASQSISNYLNWYQQKQGKAPKLLIYGASSLQSGVPSRFSGSGSGTDFTLTINSLQPEDFATYCCQQSYNNPLTFGGGTKVEIKR sit within?
Given back: lo

Asked: Which of the defined bands does the recorded Y586 channel PE fluorescence value of 17D5-11 (antibody, V domains shown, hybridoma antibody, tested as culture supernatant) VH: QVQLQESGPGLVKPSETLSLTCAVSGGSINSTNWWSWVRQPPGKGLEWIGEIYHSGSTNYNPSLKSRVTISVDKSKNQFSLKLSSVTAADTAVYYCARGGAVALDYWGQGTLVTVSS VL: EIVLTQSPGPLSLSPGDRATLSCRASQTVSSSYLAWYLQKPGQAPRLLIYGASIRATGIPDRFSGSGSGTDFTLTISRLEPEDFAVYYCQQYGNSPITFGQGTRLEIKR sit within?
Given back: hi

Asked: Which of the defined bands does the recorded Y586 channel PE fluorescence value of 24A12-12 (antibody, V domains shown, hybridoma antibody, tested as culture supernatant) VH: QVQLQESGPGLVKPAGTLSLTCAVSGGSISSSNWWNWVRQPPGKGLEWIGEIYHSGSTNYNPSLKSRVTISVDTSKNQFSLKLTSVTAADTAVYYCARTGPTVTTDYWGQGTLVTVSS VL: EIVLTQSPGTLSLSPGERATLSCRASQSVSSSYLAWYQQKPGQAPRLLIYGASYRATGMPERFSGSGSGTDFTLTISRLEPEDFAIYYCQQYGRSPLTFGGGTKVEIKR sit within?
Given back: mid

Asked: Which of the defined bands does the recorded Y586 channel PE fluorescence value of 16E4-10-5 (antibody, V domains shown, hybridoma antibody, tested as culture supernatant) VH: QVQLQESGPGLVKPSGTLSLTCDVSGGSISSSNWWSWVRQPPGKGLEWIGEIYHSGSTNYNPSLKSRVTISVDKSKNQVSLKLNSVTAADTAVYYCARGDILLWFGGQGTLVTVSS VL: EIVLTQSPGTLSLSPGERATLSCRASQSVSSRYLAWYQQKPGQAPRLLIYGASNRATGMPDRFSGSGSGTDFTLTISRLEPEDFAVYYCQQYGSSPITFGQGTRLEIKR sit within?
Given back: mid

Asked: Which of the defined bands does the recorded Y586 channel PE fluorescence value of 55H6-6 (antibody, V domains shown, hybridoma antibody, tested as culture supernatant) VH: QVQLVQSGAEVKKPGASVKVSCKASGYTFTSYGISWVRQAPGQGLEWMGWISAYNGHTNYAQKLQGRVTMTTDTSTNTAYMELWSLRSDDTAVYYCTSDYGDYWGQGTLVTVSS VL: DVVVTQSPLSLPVTLGQPASISCRSSQSLVYSDGNTNLYWFQQRPGQSPRRLIYQVSNRDSGVPDRFSGSGSGTDFTLKISRVEAEDVGVYYCMQGTHWPPALTFGGGTEVEIKR sit within?
Given back: hi

Asked: Which of the defined bands does the recorded Y586 channel PE fluorescence value of 35B8-6 (antibody, V domains shown, hybridoma antibody, tested as culture supernatant) VH: QITLKESGPTLVKPTQTLTLTCTFSGFSLSTSAVNVGWIRQPHGKALEWLALIFWNDDKRYSPSLKNRLTITKDTSKDQVVLTMSNMDPVDTATYYCAQYNWNSSFDYWGQGTLVTVSS VL: DIQMTQSPSSLSASLGDRVTITCQASQDINTYLNWYQQKPGKAPKVLIYDASNLETGVPSRFSGSGSGTDFTFTISSLQPEDIATFYCQQYDNLITFGGGTKVEIKR sit within?
Given back: mid
